Reported pIC50 values follow for various compounds
# MEASUREMENT_TARGET: c-Met (Homo sapiens)
# Construct: Kinases are expressed as either kinase domains or full length constructs; made in house
# PROCEDURE_SUMMARY: Kinase inhibition assay (33P transfer), c-Met
# Format: biochemical
# CONDITION_NOTES: Table 2, class symbols A-E; read-out: Met-1
pIC50: −log10 of the molar value.
MEASURE: pIC50

| COMPOUND | READING |
| --- | --- |
| CN(c1cccc(Cl)c1)c1ncnc(Nc2ccc(OCCO)cc2)n1 | > 5.97 |
| COc1cc(Nc2ncnc(-c3cccnc3NCc3ccccc3OC(F)(F)F)n2)cc(OC)c1OC | 5.07 to 5.18 |
| c1ccc(CNc2nc3ccccc3n2-c2ncnc(Nc3cccc(Cn4ccnn4)c3)n2)cc1 | < 5.02 |
| Cc1ccc(Cl)cc1Nc1ncnc(N2c3ccc(F)cc3CCC2C)n1 (stereo not drawn) | 5.20 to 5.98 |
| CN(c1cccc(Cl)c1)c1ncnc(Nc2cccc(OC(F)(F)F)c2)n1 | 5.05 to 5.22 |
| COc1cc(Nc2ncnc(-n3ccnc3Cl)n2)cc(OC)c1OC | < 4.91 |

---

# MEASUREMENT_TARGET: IGFR-1 (Homo sapiens, UniProt P08069)
# Construct: Kinases are expressed as either kinase domains or full length constructs; made in house
# Sequence (P08069 31-1367): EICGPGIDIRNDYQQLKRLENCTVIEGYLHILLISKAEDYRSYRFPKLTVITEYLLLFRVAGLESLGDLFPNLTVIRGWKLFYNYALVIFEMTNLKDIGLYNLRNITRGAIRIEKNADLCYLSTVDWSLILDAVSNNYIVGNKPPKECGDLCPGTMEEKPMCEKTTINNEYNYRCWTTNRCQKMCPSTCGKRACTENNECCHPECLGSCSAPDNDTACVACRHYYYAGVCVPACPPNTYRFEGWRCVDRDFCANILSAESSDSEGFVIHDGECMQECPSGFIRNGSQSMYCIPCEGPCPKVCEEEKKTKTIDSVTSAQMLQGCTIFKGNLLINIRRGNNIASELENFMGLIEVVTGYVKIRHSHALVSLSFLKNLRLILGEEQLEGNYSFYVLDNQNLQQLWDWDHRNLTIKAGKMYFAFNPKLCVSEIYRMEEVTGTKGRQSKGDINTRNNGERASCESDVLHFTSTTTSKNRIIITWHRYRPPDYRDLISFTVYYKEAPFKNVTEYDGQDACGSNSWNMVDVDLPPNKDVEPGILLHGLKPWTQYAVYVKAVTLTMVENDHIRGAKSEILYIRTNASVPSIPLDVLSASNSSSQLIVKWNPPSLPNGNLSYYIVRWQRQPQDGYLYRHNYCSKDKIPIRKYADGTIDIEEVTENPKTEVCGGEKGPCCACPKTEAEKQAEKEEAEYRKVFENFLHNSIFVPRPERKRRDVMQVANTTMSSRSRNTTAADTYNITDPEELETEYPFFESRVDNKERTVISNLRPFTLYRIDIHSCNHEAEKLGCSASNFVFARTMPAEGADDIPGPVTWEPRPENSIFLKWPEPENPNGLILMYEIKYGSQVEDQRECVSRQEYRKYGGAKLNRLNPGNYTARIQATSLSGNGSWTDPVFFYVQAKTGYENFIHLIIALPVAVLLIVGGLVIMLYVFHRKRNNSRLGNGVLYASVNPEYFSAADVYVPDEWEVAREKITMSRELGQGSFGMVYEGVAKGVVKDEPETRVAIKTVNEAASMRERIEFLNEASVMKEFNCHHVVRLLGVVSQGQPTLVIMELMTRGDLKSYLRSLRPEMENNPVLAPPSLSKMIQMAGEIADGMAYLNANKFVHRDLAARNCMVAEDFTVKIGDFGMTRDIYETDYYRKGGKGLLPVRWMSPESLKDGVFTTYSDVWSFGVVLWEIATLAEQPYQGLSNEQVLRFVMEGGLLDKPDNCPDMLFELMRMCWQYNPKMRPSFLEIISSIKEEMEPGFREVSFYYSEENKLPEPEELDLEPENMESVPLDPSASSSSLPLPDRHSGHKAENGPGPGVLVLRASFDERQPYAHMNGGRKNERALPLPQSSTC
# PROCEDURE_SUMMARY: Kinase inhibition assay (33P transfer), IGFR-1
# Format: biochemical
# CONDITION_NOTES: Table 2, kinase inhibition class
pIC50: −log10 of the molar value.

| INPUT_SMILES | MEASUREMENT_TARGET | pIC50 |
| --- | --- | --- |
| NC(=O)c1ccc(Nc2ncnc(-c3cccs3)n2)cc1 | IGFR-1 (Homo sapiens, UniProt P08069) | < 4.82 |
| COc1cc(Nc2ncnc(Nc3ccc(C(C)C)cc3)n2)cc(OC)c1OC | IGFR-1 (Homo sapiens, UniProt P08069) | > 6.00 |
| OCc1ccc(Nc2ncnc(-c3ccccc3)n2)cc1 | IGFR-1 (Homo sapiens, UniProt P08069) | < 4.79 |

---

Reported IC50 values follow for various compounds
# MEASUREMENT_TARGET: c-Met (Homo sapiens, UniProt P08581)
# Construct: Kinases are expressed as either kinase domains or full length constructs; made in house
# Sequence (P08581 25-1390): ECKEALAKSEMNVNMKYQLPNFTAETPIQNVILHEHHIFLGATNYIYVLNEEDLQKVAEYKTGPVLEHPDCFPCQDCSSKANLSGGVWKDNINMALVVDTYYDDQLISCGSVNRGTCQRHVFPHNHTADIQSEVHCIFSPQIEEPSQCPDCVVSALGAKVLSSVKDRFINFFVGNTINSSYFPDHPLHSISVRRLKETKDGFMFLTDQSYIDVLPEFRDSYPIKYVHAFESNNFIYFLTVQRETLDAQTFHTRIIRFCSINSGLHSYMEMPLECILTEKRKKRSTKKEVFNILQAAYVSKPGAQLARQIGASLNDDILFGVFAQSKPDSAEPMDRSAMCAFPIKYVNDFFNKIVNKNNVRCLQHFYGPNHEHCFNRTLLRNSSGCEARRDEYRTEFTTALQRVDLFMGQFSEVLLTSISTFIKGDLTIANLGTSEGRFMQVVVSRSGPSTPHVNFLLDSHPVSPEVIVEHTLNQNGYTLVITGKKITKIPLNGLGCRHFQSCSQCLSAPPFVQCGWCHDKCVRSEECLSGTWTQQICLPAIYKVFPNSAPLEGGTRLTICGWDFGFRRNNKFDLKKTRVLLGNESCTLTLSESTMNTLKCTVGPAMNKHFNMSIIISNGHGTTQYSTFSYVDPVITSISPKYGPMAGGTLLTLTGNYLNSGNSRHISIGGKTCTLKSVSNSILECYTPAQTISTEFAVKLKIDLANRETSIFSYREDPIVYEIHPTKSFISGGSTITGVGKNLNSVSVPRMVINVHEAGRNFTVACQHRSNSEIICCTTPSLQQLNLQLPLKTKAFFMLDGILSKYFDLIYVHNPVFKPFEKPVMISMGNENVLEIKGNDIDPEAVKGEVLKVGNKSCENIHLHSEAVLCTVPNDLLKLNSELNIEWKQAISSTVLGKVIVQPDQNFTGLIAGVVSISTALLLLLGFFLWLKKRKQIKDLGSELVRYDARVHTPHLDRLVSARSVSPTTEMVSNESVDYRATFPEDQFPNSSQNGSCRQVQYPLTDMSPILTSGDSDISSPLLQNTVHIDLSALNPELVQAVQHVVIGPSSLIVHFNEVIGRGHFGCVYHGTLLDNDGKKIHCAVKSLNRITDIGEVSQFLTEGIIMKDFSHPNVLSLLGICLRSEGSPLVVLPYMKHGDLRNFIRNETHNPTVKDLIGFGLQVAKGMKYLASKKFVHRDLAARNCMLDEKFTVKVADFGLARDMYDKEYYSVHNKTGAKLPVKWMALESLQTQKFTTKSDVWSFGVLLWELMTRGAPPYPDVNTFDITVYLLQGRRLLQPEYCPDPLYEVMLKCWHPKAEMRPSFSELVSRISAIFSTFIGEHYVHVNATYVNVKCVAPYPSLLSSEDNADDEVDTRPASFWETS
# PROCEDURE_SUMMARY: Kinase inhibition assay (33P transfer), c-Met
# Format: biochemical
# CONDITION_NOTES: Table 2, kinase inhibition class; read-out: Met-1

| COMPOUND | MEASUREMENT_TARGET | IC50 |
| --- | --- | --- |
| COc1cc(Nc2ncnc(-n3c(NC4CCc5ccccc54)nc4ccccc43)n2)cc(OC)c1OC (stereo not drawn) | c-Met (Homo sapiens, UniProt P08581) | > 8.83 µM |
| Cc1ccc2c(c1)CCCN2c1ncnc(NCCN2CCOCC2)n1 | c-Met (Homo sapiens, UniProt P08581) | > 12.7 µM |
| COc1cc(Nc2ncnc(-n3c(Nc4ccc5[nH]ccc5c4)nc4ccccc43)n2)cc(OC)c1OC | c-Met (Homo sapiens, UniProt P08581) | 4.72 to 6.88 µM |
| CC(C)(C)OC(=O)Nc1ccc(Nc2ncnc(Nc3ccc(OCc4ccccc4)cc3)n2)cc1 | c-Met (Homo sapiens, UniProt P08581) | > 9.29 µM |
| COc1ccc(Nc2ncnc(-c3ccccc3)n2)cc1 | c-Met (Homo sapiens, UniProt P08581) | > 16.2 µM |
| COc1cc(Nc2ncnc(-c3ccc(N4CCOCC4)nc3)n2)cc(OC)c1OC | c-Met (Homo sapiens, UniProt P08581) | > 10.6 µM |
| COc1cc(Nc2ncnc(-n3c(NCc4ccc([N+](=O)[O-])cc4)nc4ccccc43)n2)cc(OC)c1OC | c-Met (Homo sapiens, UniProt P08581) | > 8.51 µM |
| COc1ccc(Nc2ncnc(N3CCCc4ccc(C(F)(F)F)cc43)n2)cc1OC | c-Met (Homo sapiens, UniProt P08581) | 0.927 to 5.56 µM |
| COc1cccc(Nc2ncnc(-c3ccccc3)n2)c1 | c-Met (Homo sapiens, UniProt P08581) | > 16.2 µM |
| CN(c1cccc(Cl)c1)c1ncnc(Nc2ccc(F)c(C(F)(F)F)c2)n1 | c-Met (Homo sapiens, UniProt P08581) | > 11.3 µM |
| COc1cc(Nc2ncnc(-n3c(NC(=O)c4ccccc4)nc4ccccc43)n2)cc(OC)c1OC | c-Met (Homo sapiens, UniProt P08581) | > 9.04 µM |
| O=C(O)Cc1cccc(Nc2ncnc(Nc3cccc(Br)c3)n2)c1 | c-Met (Homo sapiens, UniProt P08581) | 8.74 to 11.2 µM |
| COc1cc(Nc2ncnc(-n3c(Nc4cccc(F)c4)nc4ccccc43)n2)cc(OC)c1OC | c-Met (Homo sapiens, UniProt P08581) | > 9.23 µM |
| COc1cc(Nc2ncnc(-n3c(NCc4ccc(C)cc4)nc4ccccc43)n2)cc(OC)c1OC | c-Met (Homo sapiens, UniProt P08581) | > 9.04 µM |
| COc1cc(Nc2ncnc(-c3cccnc3)n2)cc(OC)c1OC | c-Met (Homo sapiens, UniProt P08581) | > 13.3 µM |

---

# MEASUREMENT_TARGET: Lck (Homo sapiens, UniProt P06239)
# Construct: Kinases are expressed as either kinase domains or full length constructs; made in house
# Sequence (P06239 whole entry, species assumed, the tested form may be a part): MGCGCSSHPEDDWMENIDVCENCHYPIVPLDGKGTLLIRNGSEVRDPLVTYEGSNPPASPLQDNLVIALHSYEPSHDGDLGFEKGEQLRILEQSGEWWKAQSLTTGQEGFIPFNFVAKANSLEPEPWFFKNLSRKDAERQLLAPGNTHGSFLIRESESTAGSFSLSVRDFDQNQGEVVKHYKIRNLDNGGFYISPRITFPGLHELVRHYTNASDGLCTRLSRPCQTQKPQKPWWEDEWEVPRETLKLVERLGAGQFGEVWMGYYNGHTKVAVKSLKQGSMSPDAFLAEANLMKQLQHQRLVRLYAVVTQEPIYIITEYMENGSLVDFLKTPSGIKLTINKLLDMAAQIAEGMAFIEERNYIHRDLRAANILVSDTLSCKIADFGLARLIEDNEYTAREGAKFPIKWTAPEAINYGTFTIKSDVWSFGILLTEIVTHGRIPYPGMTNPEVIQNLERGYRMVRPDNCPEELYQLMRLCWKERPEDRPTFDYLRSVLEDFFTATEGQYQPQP
# PROCEDURE_SUMMARY: Kinase inhibition assay (33P transfer), Lck
# Format: biochemical
# CONDITION_NOTES: Table 3; read-out: Lck-1

| COMPOUND | IC50 |
| --- | --- |
| COc1cc(Nc2ncnc(N3CCc4ccccc4C3)n2)cc(OC)c1OC | > 11.4 µM |
| COc1cc(Nc2ncnc(Nc3cnc4ccccc4c3)n2)cc(OC)c1OC | 0.989 to 5.93 µM |
| COc1cccc(Nc2ncnc(Nc3cc(OC)c(OC)c(OC)c3)n2)c1 | 1.04 to 6.26 µM |
| COc1cccc(-c2ncnc(Nc3cc(OC)c(OC)c(OC)c3)n2)c1 | 1.09 to 6.51 µM |
| COc1cc(OC)cc(-c2nnc(Nc3ncnc(Nc4cc(OC)c(OC)c(OC)c4)n3)[nH]2)c1 | > 9.37 µM |
| OCCCNc1cc(-c2ncnc(Nc3cccc(OC(F)(F)C(F)F)c3)n2)ccn1 | > 10.3 µM |
| COc1cc(Nc2ncnc(-n3c(Nc4cccc(C)c4)nc4ccccc43)n2)cc(OC)c1OC | 4.96 to 7.24 µM |
| COc1cc(Nc2ncnc(-c3cc4ccccc4s3)n2)cc(OC)c1OC | > 11.4 µM |
| COc1cc(Nc2ncnc(-n3c(Nc4ccc5cn[nH]c5c4)nc4ccccc43)n2)cc(OC)c1OC | 0.785 to 4.71 µM |
| COc1ccccc1Nc1ncnc(-c2ccccc2)n1 | > 16.2 µM |
| C#Cc1cccc(Nc2ncnc(Nc3cc(OC)c(OC)c(OC)c3)n2)c1 | 1.06 to 6.36 µM |
| COc1cc(Nc2ncnc(-c3ccc(N4CCNCC4)nc3)n2)cc(OC)c1OC | > 10.6 µM |
| COc1cc(Nc2ncnc(-n3c(Nc4ccc(C(C)C)cc4)nc4ccccc43)n2)cc(OC)c1OC | 0.782 to 4.69 µM |
| COc1ccc(Nc2ncnc(Nc3ccc(Oc4ccccc4)cc3)n2)cc1OC | 0.963 to 5.78 µM |
| Brc1ccc(Nc2ncnc(-n3cccc3)n2)cc1 | > 14.2 µM |
| COc1cc(Nc2ncnc(-n3c(N)nc4ccccc43)n2)cc(OCCN2CCOCC2)c1OC | < 0.812 µM |
| COc1cc(Nc2ncnc(Nc3ccccn3)n2)cc(OC)c1OC | > 12.7 µM |
| N#Cc1ccc(Nc2ncnc(-c3cccs3)n2)cc1 | > 16.1 µM |
| COc1cc(Nc2ncnc(NC3CC3c3ccccc3)n2)cc(OC)c1OC (stereo not shown) | < 1.02 µM |

---

# MEASUREMENT_TARGET: Zap-70 (Homo sapiens, UniProt P43403)
# Construct: Kinases are expressed as either kinase domains or full length constructs; made in house
# Sequence (P43403 whole entry, species assumed, the tested form may be a part): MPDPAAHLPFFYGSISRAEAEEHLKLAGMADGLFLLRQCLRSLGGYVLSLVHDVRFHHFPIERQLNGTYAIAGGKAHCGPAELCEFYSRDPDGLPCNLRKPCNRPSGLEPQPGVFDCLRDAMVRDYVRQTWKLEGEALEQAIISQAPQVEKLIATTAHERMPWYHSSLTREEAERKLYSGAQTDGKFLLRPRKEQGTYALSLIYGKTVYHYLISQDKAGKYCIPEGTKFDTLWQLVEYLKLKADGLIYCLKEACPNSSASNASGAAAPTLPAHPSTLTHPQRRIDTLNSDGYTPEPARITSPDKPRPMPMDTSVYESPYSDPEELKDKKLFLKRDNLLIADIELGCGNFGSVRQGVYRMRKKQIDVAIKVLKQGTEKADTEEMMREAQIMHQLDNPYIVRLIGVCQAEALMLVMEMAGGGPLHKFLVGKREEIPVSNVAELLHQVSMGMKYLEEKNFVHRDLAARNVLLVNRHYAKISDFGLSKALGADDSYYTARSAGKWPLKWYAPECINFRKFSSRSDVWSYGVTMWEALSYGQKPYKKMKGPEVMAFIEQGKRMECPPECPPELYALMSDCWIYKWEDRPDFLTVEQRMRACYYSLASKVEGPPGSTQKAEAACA
# PROCEDURE_SUMMARY: Kinase inhibition assay (33P transfer), Zap-70
# Format: biochemical
# CONDITION_NOTES: read-out: Zap-1

| COMPOUND | IC50 |
| --- | --- |
| O=c1[nH]c2ccccc2n1-c1ncnc(Nc2ccccc2)n1 | > 14.8 µM |
| COc1cc(Nc2ncnc(-n3c(NC4CCCc5ccccc54)nc4ccccc43)n2)cc(OC)c1OC (centres unmarked) [Compound 587] | > 8.59 µM |
| O=C(O)Cc1ccc(Nc2ncnc(Nc3cc(-c4ccco4)n[nH]3)n2)cc1 | 9.27 to 11.9 µM |
| COc1cc(Nc2ncnc(-n3c(NCc4ncccc4C)nc4ccccc43)n2)cc(OC)c1OC | > 9.03 µM |
| CCN(CC)CCOc1ccc(Nc2ncnc(-n3c(N)nc4ccccc43)n2)cc1OC | > 10 µM |
| COc1cc(Nc2ncnc(-n3c(NC(C)c4ccc(F)cc4)nc4ccccc43)n2)cc(OC)c1OC (centres unmarked) | > 8.73 µM |
| COc1ccc([C@H](C)Nc2nc3ccccc3n2-c2ncnc(Nc3cc(OC)c(OC)c(OC)c3)n2)cc1 | > 8.53 µM |
| CC(=O)NS(=O)(=O)c1ccc(Nc2ncnc(N(C)c3cccc(Cl)c3)n2)cc1 | > 10.4 µM |

This collection of values is drawn from patent US7074789B2.
